The following binders are shown together with reported EC50 values.
# assaySystem: T1, TRCW5 antigen (CD3δε-Fc-Avi) (biotinylated (site not stated))
# T1 construct: also called recombinant CD3
# T1 sequence (chain, as listed by the source mutant limits assumed): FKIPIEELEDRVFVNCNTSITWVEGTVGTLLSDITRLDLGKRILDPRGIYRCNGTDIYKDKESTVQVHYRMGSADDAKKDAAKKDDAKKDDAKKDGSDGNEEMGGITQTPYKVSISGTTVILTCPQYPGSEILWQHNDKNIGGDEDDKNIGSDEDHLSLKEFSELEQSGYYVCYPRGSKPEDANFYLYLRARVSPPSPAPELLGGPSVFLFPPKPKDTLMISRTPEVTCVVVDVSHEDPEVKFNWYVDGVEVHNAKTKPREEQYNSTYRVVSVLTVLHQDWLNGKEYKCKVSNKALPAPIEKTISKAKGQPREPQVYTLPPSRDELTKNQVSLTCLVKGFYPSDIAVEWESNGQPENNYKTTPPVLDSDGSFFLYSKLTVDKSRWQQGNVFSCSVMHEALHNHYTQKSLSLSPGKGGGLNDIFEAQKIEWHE
# procedureText: ELISA

binder: CD3B2030 N106R (scFv) scFv: QVQLVQSGAEVKKPGSSVKVSCKASGYTFTRSTMHWVKQAPGQGLEWIGYINPSSAYTNYNQKFQGRVTLTADKSTSTAYMELSSLRSEDTAVYYCASPQVHYDYRGFPYWGQGTLVTVSSGGSEGKSSGSGSESKSTGGSEIVLTQSPATLSASPGERVTLSCSASSSVSYMNWYQQKPGQAPRRWIYDSSKLASGVPARFSGSGSGRDYTLTISSLEPEDFAVYYCQQWSRNPPTFGGGTKVEIK
EC50: 10.6 nM
//
binder: CD3B2030 N106P (scFv) scFv: QVQLVQSGAEVKKPGSSVKVSCKASGYTFTRSTMHWVKQAPGQGLEWIGYINPSSAYTNYNQKFQGRVTLTADKSTSTAYMELSSLRSEDTAVYYCASPQVHYDYPGFPYWGQGTLVTVSSGGSEGKSSGSGSESKSTGGSEIVLTQSPATLSASPGERVTLSCSASSSVSYMNWYQQKPGQAPRRWIYDSSKLASGVPARFSGSGSGRDYTLTISSLEPEDFAVYYCQQWSRNPPTFGGGTKVEIK
EC50: ~24 nM
//
binder: CD3B2089 N106S (scFv) scFv: QVQLVQSGAEVKKPGSSVKVSCKASGYTFTRSTMHWVRQAPGQGLEWMGYINPSSAYTNYAQKFQGRVTLTADKSTSTAYMELSSLRSEDTAVYYCASPQVHYDYSGFPYWGQGTLVTVSSGGSEGKSSGSGSESKSTGGSEIVLTQSPATLSASPGERVTLSCSASSSVSYMNWYQQKPGQAPRRWIYDSSKLASGVPARFSGSGSGRDYTLTISSLEPEDFAVYYCQQWSRNPPTFGGGTKVEIK
EC50: 10 nM
//
binder: CD3B2089 N106T (scFv) scFv: QVQLVQSGAEVKKPGSSVKVSCKASGYTFTRSTMHWVRQAPGQGLEWMGYINPSSAYTNYAQKFQGRVTLTADKSTSTAYMELSSLRSEDTAVYYCASPQVHYDYTGFPYWGQGTLVTVSSGGSEGKSSGSGSESKSTGGSEIVLTQSPATLSASPGERVTLSCSASSSVSYMNWYQQKPGQAPRRWIYDSSKLASGVPARFSGSGSGRDYTLTISSLEPEDFAVYYCQQWSRNPPTFGGGTKVEIK
EC50: 11.1 nM
//
binder: CD3B2051 N106H (scFv) scFv: QVQLVQSGAEVKKPGSSVKVSCKASGYTFTRSTMHWVKQAPGQGLEWMGYINPSSAYTNYNQKFQGRVTLTADKSTSTAYMELSSLRSEDTAVYYCASPQVHYDYHGFPYWGQGTLVTVSSGGSEGKSSGSGSESKSTGGSEIVLTQSPATLSASPGERVTLSCSASSSVSYMNWYQQKPGQAPRRLIYDSSKLASGVPARFSGSGSGRDYTLTISSLEPEDFAVYYCQQWSRNPPTFGGGTKVEIK
EC50: 10.9 nM
